Where do these numbers come from? They come from patent US8153630B2.

Tested on: HCT 116 Cells
Assay: Aurora kinase whole cell cytotoxicity assay: Sulforhodamine B
Format: cell-based
Conditions: Homo sapiens, HCT116, SRB staining, 96 hours incubation
experimental-endpoint: GI50

Requested read-out: GI50. Entry: Cc1cc(Nc2nc(Sc3ccc(NC(=O)C4CC4)cc3)nc(C(=O)NCC(F)(F)F)c2N)n[nH]1 [Compound 65]
100 to 1000 nM

Tell me the measured GI50 of COC(=O)c1nc(Sc2ccc(NC(=O)C3CC3)cc2)nc(Nc2cc(C)[nH]n2)c1N [Compound 7] , please.
100 to 1000 nM

Using the record for Cc1cc(Nc2nc(Sc3ccc(NC(=O)C4CC4)cc3)nc(C(=O)NCCN3CCCCC3)c2N)n[nH]1 [Compound 17] , report its GI50.
100 to 1000 nM
